The reported numbers originate from a melting point compilation (Tetko et al.).

metric.name: melting point

- chemical.string: "CCCc1cc(N)n(C)n1"
  melting point: "68 to 70 °C"
- chemical.string: "NC(=O)Cn1ccc(=O)c2ccccc21"
  melting point: "294 to 296 °C"

[Q] Indicate the recorded melting point value for this compound: COc1cccc(CN2C(=O)NC(=O)C2=O)c1
[A] 139 to 141 °C

[Q] Give the reported melting point for this compound. CC1(C)NC(=O)N=C1N
[A] 259 to 261 °C

[Q] Provide only the value of recorded melting point for Cn1cc(C(=O)O)c(=O)c2cc(Cl)ccc21
[A] 302 to 304 °C

[Q] Specify melting point for CC(C)n1cnnc1S and stop.
[A] 116 to 118 °C

[Q] Please give the documented melting point of O=[N+]([O-])c1cc([N+](=O)[O-])c(Br)cc1F
[A] 92 to 94 °C

---

# melting point annotations

- compound: "CC(C)(C)OC(=O)NC1CCCCCC1O (centres undefined)"
  melting point: "85 to 87 °C"
- compound: "O=[N+]([O-])c1ccc(Cl)c(Br)c1"
  melting point: "57 to 59 °C"
- compound: "C=CCn1c(N)c(C(N)=S)sc1=S"
  melting point: "195 to 197 °C"
- compound: "Nc1ccccc1C(=O)NCc1ccc2c(c1)OCO2"
  melting point: "115 to 124 °C"
- compound: "CC(C)(C(=O)O)c1cccc(Br)c1"
  melting point: "68 to 70 °C"

[Q] Answer with the recorded melting point of O=C(O)CNS(=O)(=O)c1cccc(C(F)(F)F)c1 only.
[A] 80 to 82 °C

[Q] Identify measured melting point corresponding to NC1(c2ccc(Br)cc2)CCOCC1
[A] 85 to 87 °C

[Q] Look up melting point of O=c1[nH]ccs1 and report it.
[A] 55 to 57 °C

[Q] # return recorded melting point for entry Cn1cc(C=O)c(=O)n(C)c1=O
[A] 121 to 123 °C

[Q] Using known records, supply melting point for CC(C)c1cc(NC(=O)CCl)on1
[A] 75 to 77 °C

---

Below: a set of entries, each annotated with reported melting point.

Some solved cases for reference:
- molecule: "CN(C)S(=O)(=O)c1cc(C(=O)O)ccc1Cl"
  melting point: "239 to 241 °C"
- molecule: "N#CCC1=NC(=O)CS1"
  melting point: "183 to 185 °C"
- molecule: "NC(=O)C1CNc2ccccc2N1 (centres undefined)"
  melting point: "99 to 101 °C"
- molecule: "CCC1CSC(Nc2ccc(Cl)c(Cl)c2)=N1 (centres undefined)"
  melting point: "107 to 109 °C"

[Q] Specify measured melting point for CN(C)S(=O)(=O)c1ccc(N2CCCCC2)c(C(=O)O)c1 .
[A] 135 to 137 °C

[Q] Please supply the value of reported melting point for the item O=C(O)c1ccccc1OCc1ccc(Br)cc1
[A] 119 to 121 °C

[Q] Give the reported melting point for this molecule. Sc1nnnn1CC1CCCO1 (centres undefined)
[A] 28 to 30 °C

[Q] Given NC(=O)NC(=O)OCCCCl , respond with its melting point.
[A] 165 to 167 °C

[Q] Please supply the value of reported melting point for the item Nc1nc2c3c(ccc2s1)CCCC3
[A] 122 to 124 °C

[Q] Please supply the value of reported melting point for the item Cc1cc(-c2cccc(F)c2)nnc1Cl
[A] 132 to 134 °C

[Q] Read the entry CCc1cc(N)on1 and write its reported melting point.
[A] 49 to 51 °C

[Q] Tell me its melting point given CC(C)Nc1cccnc1 as the entry.
[A] 40 to 42 °C

[Q] Quickly give me recorded melting point for Cc1nnc(S)n1CC(=O)N(C)C
[A] 260 to 262 °C

[Q] Name the recorded melting point of the item O=C(O)c1cc(Oc2ccccc2)ccn1 in your answer.
[A] 179 to 181 °C

---

Entries annotated with measured melting point

- molecule: "O=C1NC(=O)C(CCSSCCC2NC(=O)NC2=O)N1 (configuration not stated)"
  melting point: "236 to 238 °C"
- molecule: "CN(C)CC(O)Cn1cc(N)cn1 (configuration not stated)"
  melting point: "68 to 70 °C"
- molecule: "COc1ccc2nc(Cl)c(C)cc2c1"
  melting point: "92 to 94 °C"
- molecule: "O=C(O)C=Cc1ccc2ccc(Cl)cc2n1"
  melting point: "226 to 228 °C"
- molecule: "Cc1cccc(NC(=O)N2CCC(C(=O)O)CC2)c1"
  melting point: "189 to 191 °C"

[Q] Complete the entry with melting point for Nc1cccn(Cc2ccc(F)cc2)c1=O
[A] 110 to 112 °C

[Q] Quick one: give measured melting point for C1CN(CCC23CC4CC(CC(C4)C2)C3)CCN1
[A] 76 to 78 °C

---

Recorded melting point by entry

- compound: "Cc1nn2c(S)nnc2nc1O"
  melting point: "305 to 307 °C"
- compound: "COc1ccc(OC)c(CNCCO)c1"
  melting point: "91 to 93 °C"
- compound: "NS(=O)(=O)N1CCOCC1"
  melting point: "161 to 163 °C"
- compound: "O=c1occc2cccnc12"
  melting point: "157 to 159 °C"
- compound: "O=C(O)c1ccc(Cl)c(N2CCCC2=O)c1"
  melting point: "288 to 290 °C"

[Q] // Input: O=S(=O)(c1ccc2c(c1)NCC2)N1CCCC1 . Output its melting point only.
[A] 181 to 183 °C

[Q] Dear colleague, please send me the reported melting point for O=C(O)Cn1cc(C(F)(F)F)ccc1=O when you can.
[A] 218 to 220 °C

[Q] Give the reported melting point for this compound. O=C1Nc2c(ccc(Cl)c2Cl)C1=O
[A] 203 to 205 °C

---

metric.name: melting point

- molecule: "O=C(O)c1ccc(OCc2ccccn2)cc1"
  experimental.result: "209 to 211 °C"
- molecule: "CCN(CC)C(=O)Nc1ccc(C(C)=O)cc1"
  experimental.result: "113 to 115 °C"
- molecule: "ClCc1coc(-c2ccc(I)cc2)n1"
  experimental.result: "129 to 131 °C"
- molecule: "Nc1cccnc1-n1cccn1"
  experimental.result: "65 to 67 °C"
- molecule: "CC(CSc1ccccc1)C(=O)O (configuration not stated)"
  experimental.result: "40 to 42 °C"
- molecule: "N#CCC(=O)c1ccc(OC(F)F)cc1"
  experimental.result: "80 to 82 °C"

Attention now turns to another entry.
[Q] Tell me melting point reported for O=C(CCl)N(c1ccccc1)C1CCS(=O)(=O)C1 (configuration not stated)
[A] 208 to 210 °C

---

# Lookup of reported melting point keyed by entry

- chemical.string: "O=C(O)CCc1cc(F)ccc1F"
  metric.name: "melting point"
  experimental.result: "71 to 73 °C"

[Q] Give melting point for CC(C)Cn1ncc2cc(C(=O)O)cnc21
[A] 175 to 177 °C

[Q] Kindly indicate its recorded melting point. Item: CS(=O)(=O)Nc1cccc(CC(=O)O)c1
[A] 156 to 158 °C

[Q] Give the reported value of melting point for this record: O=C(O)c1ccc(C(F)(F)C(F)(F)F)cc1
[A] 152 to 154 °C

[Q] Answer with reported melting point of Oc1ccc2c(O)ccnc2c1
[A] 207 to 209 °C

[Q] Specify measured melting point for O=C(O)c1cc(/C=C/c2ccc(Cl)cc2)nc2ccc(Br)cc12 .
[A] 320 to 322 °C

[Q] Determine its reported melting point: Cc1cc(C)c2c(C)c(C(=O)O)sc2n1
[A] 278 to 280 °C

---

Each entry below lists one item and its recorded melting point value.

Completed entries (count: 4):
- compound: "O=C(O)c1ccc(CO)o1"
  experimental.result: "164 to 166 °C"
- compound: "Cc1ccnc(NN)c1"
  experimental.result: "74 to 76 °C"
- compound: "NNc1cc(C(F)(F)F)nc2ncnn12"
  experimental.result: "230 to 232 °C"
- compound: "Cc1[nH]c2ccc(Cl)cc2c1C=O"
  experimental.result: "248 to 250 °C"

Okay, next one:
[Q] Annotate the compound COc1ccc(C)cc1-c1nn(CC(C)C)cc1C(=O)O with its measured melting point.
[A] 181 to 183 °C

---

// values below are reported melting point

Observe how each entry below is paired with its result.
- molecule: "NCC(O)COc1cccc(F)c1 (centres undefined)"
  melting point: "84 to 86 °C"
- molecule: "O=S(=O)(Cl)c1cccnc1Cl"
  melting point: "42 to 44 °C"
- molecule: "O=C(O)c1csc(-c2ccc(Br)s2)n1"
  melting point: "248 to 250 °C"
- molecule: "NC(=S)c1cccnc1N"
  melting point: "124 to 126 °C"
- molecule: "O=C(O)C1CCCN(S(=O)(=O)c2ccc(Cl)cc2)C1 (centres undefined)"
  melting point: "202 to 204 °C"

[Q] Supply recorded melting point for Cc1ccc(NS(=O)(=O)c2ccc(C)c(N)c2)c(C)c1 here.
[A] 111 to 113 °C

[Q] Give a short answer stating reported melting point for O=C(O)C1CCCCN1C(=O)C1CCCO1 (centres undefined) .
[A] 116 to 118 °C

[Q] Return melting point (reported value) for this molecule: CC(=O)c1cccc(OCCOc2cccc(C(C)=O)c2)c1
[A] 117 to 119 °C

[Q] Read the entry CNS(=O)(=O)c1ccc(NCCOC)c(N)c1 and write its reported melting point.
[A] 111 to 113 °C

[Q] Give reported melting point value for O=C(O)C(=O)NCC(F)F
[A] 105 to 107 °C
